Every entry's value here was drawn from paper PMC10937556.

- Experimental system: COX-2 (Homo sapiens)
- Construct: purchased Sigma-Aldrich (local distributor) C0858
- Sequence (P35354 18-604): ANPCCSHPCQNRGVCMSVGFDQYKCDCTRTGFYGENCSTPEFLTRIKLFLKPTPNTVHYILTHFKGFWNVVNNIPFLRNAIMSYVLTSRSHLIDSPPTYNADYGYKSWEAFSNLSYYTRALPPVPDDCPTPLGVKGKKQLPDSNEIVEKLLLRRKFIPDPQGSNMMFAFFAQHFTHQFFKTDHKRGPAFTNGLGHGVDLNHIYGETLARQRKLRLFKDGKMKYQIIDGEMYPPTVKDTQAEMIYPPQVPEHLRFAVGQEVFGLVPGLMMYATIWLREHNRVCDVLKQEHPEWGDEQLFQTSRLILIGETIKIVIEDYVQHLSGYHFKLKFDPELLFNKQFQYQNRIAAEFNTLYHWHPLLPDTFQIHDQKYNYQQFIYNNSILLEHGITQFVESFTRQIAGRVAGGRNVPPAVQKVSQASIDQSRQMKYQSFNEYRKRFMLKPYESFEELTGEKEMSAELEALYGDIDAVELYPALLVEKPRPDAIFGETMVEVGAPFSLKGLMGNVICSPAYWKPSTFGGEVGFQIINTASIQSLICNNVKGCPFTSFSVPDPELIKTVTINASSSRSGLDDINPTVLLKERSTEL
- Assay overview: Cyclooxygenase COX-2 inhibition assay
- Assay type: biochemical
- Condition: 250 µg/mL
Value kind: inhibition at 250 µg/mL (%)
Write the answer as a number in %, unit excluded.

Entry Cc1ccc(C(C)C)c(O)c1 needs its inhibition at 250 µg/mL filled in; supply it. 66.3

Specify measured inhibition at 250 µg/mL for C=Cc1ccc(O)cc1OC . 71.5

Specify inhibition at 250 µg/mL for Cc1cnc(O)nc1O and stop. 72.7

Output measured inhibition at 250 µg/mL for this item: CC1=C(O)C(=O)C(O)CO1 (centres unmarked) 68.8

Please list inhibition at 250 µg/mL recorded for the molecule C=Cc1cc(OC)c(O)c(OC)c1 61

* * *

- Experimental system: COX-1 (Ovis aries, UniProt P05979)
- Sequence (P05979 25-600): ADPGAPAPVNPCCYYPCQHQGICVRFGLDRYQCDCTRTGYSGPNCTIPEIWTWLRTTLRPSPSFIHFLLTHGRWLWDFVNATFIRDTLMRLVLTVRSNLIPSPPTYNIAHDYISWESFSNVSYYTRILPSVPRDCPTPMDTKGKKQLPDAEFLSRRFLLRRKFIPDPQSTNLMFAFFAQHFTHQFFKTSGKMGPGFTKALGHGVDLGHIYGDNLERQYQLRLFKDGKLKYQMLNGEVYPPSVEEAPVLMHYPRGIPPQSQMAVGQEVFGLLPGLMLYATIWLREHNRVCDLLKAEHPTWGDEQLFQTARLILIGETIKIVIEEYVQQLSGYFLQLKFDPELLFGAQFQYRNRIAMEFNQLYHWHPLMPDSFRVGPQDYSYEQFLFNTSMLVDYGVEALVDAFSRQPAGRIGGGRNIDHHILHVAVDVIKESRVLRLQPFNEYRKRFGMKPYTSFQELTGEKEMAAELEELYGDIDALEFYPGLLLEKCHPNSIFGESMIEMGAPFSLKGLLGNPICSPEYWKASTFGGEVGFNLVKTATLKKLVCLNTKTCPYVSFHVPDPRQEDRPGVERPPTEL
- Assay overview: Cyclooxygenase COX-1 inhibition assay
- Assay type: biochemical
- Condition: 1,000 µg/mL
Value kind: inhibition at 1000 µg/mL
Report field: quantity (unit follows the number).

Solved cases (3 shown):
Compound	inhibition at 1000 µg/mL
Cc1cnc(O)nc1O	73.1%
C=Cc1cc(OC)c(O)c(OC)c1	67.7%
C=Cc1ccc(O)cc1OC	71.3%

# ---- query compound ----
Supply measured inhibition at 1000 µg/mL of CC1=C(O)C(=O)C(O)CO1 (stereo not shown) in your reply. 71.4%

* * *

- Assay overview: ABTS free radical scavenging assay
- Condition: 1,000 µg/mL
Measured ABTS % inhibition accompanies every entry in the list below.
Respond numerically; units are % and should not be typed.

Use these answered entries as a reference point.
Compound	Units label	ABTS % inhibition
C=Cc1cc(OC)c(O)c(OC)c1	%	79.49
O=C1O[C@H]([C@@H](O)CO)C(O)=C1O [AA, ascorbic acid, reference compound]	%	95.85

Identify measured ABTS % inhibition corresponding to Cc1cnc(O)nc1O 91.58

Give a short answer stating reported ABTS % inhibition for CC1=C(O)C(=O)C(O)CO1 (stereo not drawn) . 86.47

Look up and report measured ABTS % inhibition for this entry: Cc1ccc(C(C)C)c(O)c1 87.79

Supply reported ABTS % inhibition belonging to this compound: C=Cc1ccc(O)cc1OC 75.33

* * *

- Assay overview: DPPH free radical scavenging assay
- Condition: 1,000 µg/mL
Label class 1 when DPPH % inhibition is at or above 90%; otherwise label class 0.

// below: answered molecules
Molecule	Label class
O=C1O[C@H]([C@@H](O)CO)C(O)=C1O [AA, ascorbic acid, reference compound]	class 1
Cc1ccc(C(C)C)c(O)c1 [Compound 3, 2-isopropyl-5-methylphenol]	class 0
Cc1cnc(O)nc1O [Compound 1, 5-methylpyrimidine-24,4-diol]	class 1
C=Cc1cc(OC)c(O)c(OC)c1 [Compound 5, 2,6-dimethoxy-4-vinylphenol]	class 0

Could you now consider this next molecule?
Hi team, for C=Cc1ccc(O)cc1OC [Compound 4, 3-methoxy-4-vinylphenol] , is the recorded DPPH % inhibition at or above 90%? class 0

* * *

# inhibition at 250 µg/mL annotations
- Experimental system: 5-LOX (Homo sapiens)
- Construct: purchased Sigma-Aldrich (local distributor) 437996
- Sequence (P09917 1-674): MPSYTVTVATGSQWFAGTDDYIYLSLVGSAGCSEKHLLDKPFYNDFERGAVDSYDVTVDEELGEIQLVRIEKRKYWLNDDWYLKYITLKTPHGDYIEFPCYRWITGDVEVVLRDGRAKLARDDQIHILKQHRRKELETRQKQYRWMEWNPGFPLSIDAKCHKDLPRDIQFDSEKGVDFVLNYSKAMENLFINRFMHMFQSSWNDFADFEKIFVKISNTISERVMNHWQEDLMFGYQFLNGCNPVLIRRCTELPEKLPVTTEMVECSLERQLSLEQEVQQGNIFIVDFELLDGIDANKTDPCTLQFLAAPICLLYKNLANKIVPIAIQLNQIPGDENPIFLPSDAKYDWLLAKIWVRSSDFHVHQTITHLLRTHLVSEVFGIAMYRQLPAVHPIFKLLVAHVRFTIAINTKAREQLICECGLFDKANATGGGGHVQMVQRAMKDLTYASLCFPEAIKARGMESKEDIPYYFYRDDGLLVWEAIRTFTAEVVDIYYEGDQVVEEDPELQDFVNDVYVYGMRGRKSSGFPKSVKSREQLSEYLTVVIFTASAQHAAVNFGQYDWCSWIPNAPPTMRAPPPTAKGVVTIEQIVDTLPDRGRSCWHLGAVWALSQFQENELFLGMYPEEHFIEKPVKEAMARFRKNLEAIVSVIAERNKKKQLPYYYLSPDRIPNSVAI
- Assay overview: 5-Lipoxygenase (5-LOX) inhibition assay
- Assay type: biochemical
- Condition: 250 µg/mL; read-out: % 5-LOX inhibitions
Just the number in %, nothing appended.

The examples below pair each entry with its known result.
Compound	Reported value
Cc1cnc(O)nc1O	76.5
C=Cc1cc(OC)c(O)c(OC)c1	65.5
C=Cc1ccc(O)cc1OC	75.7
CC1=C(O)C(=O)C(O)CO1 (centres unmarked)	73.4

Please indicate inhibition at 250 µg/mL recorded for Cc1ccc(C(C)C)c(O)c1 61.4

* * *

- Experimental system: COX-2 (Homo sapiens)
- Construct: purchased Sigma-Aldrich (local distributor) C0858
- Assay overview: Cyclooxygenase COX-2 inhibition assay
- Type: biochemical
- Condition: 125 µg/mL
We begin with a simple list: items and their reported inhibition at 125 µg/mL.
Entry rule: numbers only, all in %.

As a guide, the following entries are already answered.
Compound	Units label	Reported value
C=Cc1cc(OC)c(O)c(OC)c1	%	56.4
CC1=C(O)C(=O)C(O)CO1 (centres unmarked)	%	63.5
Cc1ccc(C(C)C)c(O)c1	%	62.5
Cc1cnc(O)nc1O	%	66.4

Now consider the entry below.
Give inhibition at 125 µg/mL for the following compound: C=Cc1ccc(O)cc1OC 64.8

* * *

- Assay overview: H2O2 free radical scavenging activity
- Condition: 250 µg/mL
Value kind: H2O2 % inhibition (%)
Note: unit % is implicit; provide only the numeric part.

Worked examples, 3 compounds total:
Compound	H2O2 % inhibition (%)
O=C1O[C@H]([C@@H](O)CO)C(O)=C1O [AA, ascorbic acid, reference compound]	78.07
Cc1ccc(C(C)C)c(O)c1 [Compound 3, 2-isopropyl-5-methylphenol]	67.05
C=Cc1ccc(O)cc1OC [Compound 4, 3-methoxy-4-vinylphenol]	62.90

# input for lookup
Please report the measured H2O2 % inhibition for C=Cc1cc(OC)c(O)c(OC)c1 [Compound 5, 2,6-dimethoxy-4-vinylphenol] 66.68

* * *

- Experimental system: COX-1 (Ovis aries, UniProt P05979)
- Assay overview: Cyclooxygenase COX-1 inhibition assay
- Assay type: biochemical
- Condition: 500 µg/mL; read-out: % COX-1 inhibition
Value kind: inhibition at 500 µg/mL
A complete answer gives the number followed by the unit.

For the compound Cc1cnc(O)nc1O , give its measured inhibition at 500 µg/mL value. 66.5%

Please list inhibition at 500 µg/mL recorded for the compound C=Cc1cc(OC)c(O)c(OC)c1 57.4%

Dear colleague, please send me the reported inhibition at 500 µg/mL for C=Cc1ccc(O)cc1OC when you can. 63%

Quote inhibition at 500 µg/mL reported for CC1=C(O)C(=O)C(O)CO1 (stereo not shown) please. 65.3%

* * *

- Experimental system: COX-1 (Ovis aries)
- Assay overview: Cyclooxygenase COX-1 inhibition assay
- Type: biochemical
- Condition: 62.50 μg/mL; read-out: % COX-1 inhibition
Each entry below carries its recorded inhibition at 62.5 µg/mL.
Output spec: scalar in %, unitless text.

Some entries whose results are on file:
Compound	Experimental system	inhibition at 62.5 µg/mL / %
C=Cc1cc(OC)c(O)c(OC)c1	COX-1 (Ovis aries)	29.1
Cc1cnc(O)nc1O	COX-1 (Ovis aries)	45.8
C=Cc1ccc(O)cc1OC	COX-1 (Ovis aries)	33

Look up inhibition at 62.5 µg/mL of CC1=C(O)C(=O)C(O)CO1 (stereo not shown) and report it. 40.8
